This collection of values is drawn from patent US11440916B2.

# experimentalDetails: Oral bioavailability, AUC, half-life, plasma, brain and liver concentration in mice at 2 mg/kg
# Format: in vivo
# experimentalSetup: mouse, plasma, 2 mg/kg, oral
experimentalReadout: half-life

Some entries whose results are on file:
CCOC(=O)c1ccc(CCn2ncc3c2nc(N)n2nc(-c4ccco4)nc32)cc1 [HZ10328] = 3.03 h
Nc1nc2c(cnn2CCc2ccc(OCC(=O)O)cc2)c2nc(-c3ccco3)nn12 [HZ10136] = < 0.5 h

Please examine the following record next.
Dear colleague, I am looking for the recorded half-life of the following compound: Nc1nc2c(cnn2CCc2ccc(C(=O)O)cc2)c2nc(-c3ccco3)nn12 [HZ10126] 4 to 5 h
